src = patent US20240075137A1

Target: T1, cynomolgus PVRIG on cells (cynomolgus, UniProt A0A2K5WVV8 41-322)
T1 construct: whole, on cells; also called cPVRIG; expi cPVRIG cells
T1 sequence: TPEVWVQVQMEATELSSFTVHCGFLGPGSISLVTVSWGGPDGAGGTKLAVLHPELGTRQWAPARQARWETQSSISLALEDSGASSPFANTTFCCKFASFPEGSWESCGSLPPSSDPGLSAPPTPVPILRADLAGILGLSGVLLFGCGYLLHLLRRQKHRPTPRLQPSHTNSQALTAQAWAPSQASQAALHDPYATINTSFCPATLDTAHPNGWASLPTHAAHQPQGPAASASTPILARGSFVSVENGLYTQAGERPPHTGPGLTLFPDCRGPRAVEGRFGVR
Test: FACS, expi cPVRIG over expi parental cells, 3.3ug/ml
EXPERIMENTAL ENDPOINT: gMFIr Expi cyno OE/par

* CHA.7.549 (antibody, V domains shown) VH: QVQLQQPGTELVKPGASVKLSCKASGFTFTTHWMHWVRQRPGQGLEWIGNIYPSNGGSNYNEKFKTKATLTVDRSSSTAYMHLSSLTSEDSAVYYCARRVNWDGYYFDYWGQGTTLTVSS VL: DIVMTQSQKFMSTSVGDRVSVTCKASQNVGTNVAWYQQKPGQSPKLLIYSASYRYSGVPDRFTGSGSGTDFTLTISNVQSEDLADYFCQQYNSYPLTFGGGTKLEIK | 1
* CHA.7.537 (antibody, V domains shown) VH: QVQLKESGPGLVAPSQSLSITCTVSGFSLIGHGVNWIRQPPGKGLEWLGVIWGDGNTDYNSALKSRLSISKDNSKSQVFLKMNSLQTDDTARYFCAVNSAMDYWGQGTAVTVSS VL: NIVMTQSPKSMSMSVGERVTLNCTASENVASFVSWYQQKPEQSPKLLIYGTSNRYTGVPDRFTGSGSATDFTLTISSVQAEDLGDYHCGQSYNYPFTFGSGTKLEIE | 1.55
* CHA.7.543 (antibody, V domains shown) VH: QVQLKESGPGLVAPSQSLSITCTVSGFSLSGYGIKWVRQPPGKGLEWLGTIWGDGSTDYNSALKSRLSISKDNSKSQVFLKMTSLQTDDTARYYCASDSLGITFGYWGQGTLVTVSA VL: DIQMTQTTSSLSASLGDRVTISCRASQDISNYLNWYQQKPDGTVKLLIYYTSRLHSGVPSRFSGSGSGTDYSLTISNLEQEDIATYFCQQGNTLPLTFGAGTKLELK | 0.83
* CHA.7.526 (antibody, V domains shown) VH: QVQLKESGPGLVAPSQSLSITCTVSGFSLTAYNINWVRQPPGKGLEWLGMIWGDGNTDYNSPLKSRLTISKDNSKSQVFLKMDSLQTDDTARYYCARDLKVRRDSPYTMDYWGQGTSVTVSS VL: NIMMTQSPSSLAVSAGEKVTMSCKSSQSVLYSSNQKNYLAWYQQKPGQSPKLLIYWASNRESGVPDRFTGSGSGTDFTLTISSVQAEDLAVYYCHQYLSSYTFGGGTKLEIK | 0.79
* CHA.7.524 (antibody, V domains shown) VH: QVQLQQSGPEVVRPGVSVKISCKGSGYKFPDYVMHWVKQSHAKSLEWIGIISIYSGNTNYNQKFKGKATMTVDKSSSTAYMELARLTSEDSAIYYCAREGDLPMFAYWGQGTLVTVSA VL: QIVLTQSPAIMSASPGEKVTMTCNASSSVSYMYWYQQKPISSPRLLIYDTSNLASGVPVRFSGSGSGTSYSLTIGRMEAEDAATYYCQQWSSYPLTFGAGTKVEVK | 66.3
* CHA.7.548 (antibody, V domains shown) VH: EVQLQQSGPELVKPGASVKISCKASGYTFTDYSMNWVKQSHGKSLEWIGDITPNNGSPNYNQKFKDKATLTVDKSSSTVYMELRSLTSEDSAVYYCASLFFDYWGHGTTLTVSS VL: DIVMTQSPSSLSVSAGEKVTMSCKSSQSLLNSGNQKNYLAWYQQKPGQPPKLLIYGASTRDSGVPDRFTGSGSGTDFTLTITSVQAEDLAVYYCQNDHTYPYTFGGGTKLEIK | 4.25
* CHA.7.535 (antibody, V domains shown) VH: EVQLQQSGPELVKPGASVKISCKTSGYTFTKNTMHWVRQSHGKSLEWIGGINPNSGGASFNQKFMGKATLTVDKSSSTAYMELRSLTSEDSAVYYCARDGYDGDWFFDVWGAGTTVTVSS VL: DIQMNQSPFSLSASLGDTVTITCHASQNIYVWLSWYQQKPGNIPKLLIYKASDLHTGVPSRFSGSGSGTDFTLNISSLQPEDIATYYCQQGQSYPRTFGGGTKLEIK | 0.82
* CHA.7.545 (antibody, V domains shown) VH: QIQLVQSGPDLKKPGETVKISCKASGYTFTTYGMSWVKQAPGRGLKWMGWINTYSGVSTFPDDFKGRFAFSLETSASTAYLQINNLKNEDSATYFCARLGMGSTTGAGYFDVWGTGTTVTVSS VL: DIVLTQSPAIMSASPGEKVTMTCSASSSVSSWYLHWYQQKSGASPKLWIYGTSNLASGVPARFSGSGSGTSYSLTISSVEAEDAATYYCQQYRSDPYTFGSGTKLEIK | 0.91
* CHA.7.534 (antibody, V domains shown) VH: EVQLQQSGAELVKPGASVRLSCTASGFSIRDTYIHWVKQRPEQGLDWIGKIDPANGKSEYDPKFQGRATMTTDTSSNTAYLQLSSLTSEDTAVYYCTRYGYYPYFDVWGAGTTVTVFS VL: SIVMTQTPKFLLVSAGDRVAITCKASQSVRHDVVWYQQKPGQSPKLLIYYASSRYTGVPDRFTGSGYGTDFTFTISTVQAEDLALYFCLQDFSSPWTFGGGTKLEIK | 46.3
* CHA.7.530 (antibody, V domains shown) VH: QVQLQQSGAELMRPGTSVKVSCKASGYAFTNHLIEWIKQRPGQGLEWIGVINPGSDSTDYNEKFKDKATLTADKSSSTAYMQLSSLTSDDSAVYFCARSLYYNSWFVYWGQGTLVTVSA VL: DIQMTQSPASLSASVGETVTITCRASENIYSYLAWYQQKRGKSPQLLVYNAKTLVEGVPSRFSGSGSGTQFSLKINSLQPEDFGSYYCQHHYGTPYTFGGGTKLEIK | 60.8
* CHA.7.547 (antibody, V domains shown) VH: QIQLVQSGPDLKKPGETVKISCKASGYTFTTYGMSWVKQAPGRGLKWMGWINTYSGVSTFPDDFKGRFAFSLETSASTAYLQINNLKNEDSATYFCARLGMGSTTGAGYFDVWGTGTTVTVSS VL: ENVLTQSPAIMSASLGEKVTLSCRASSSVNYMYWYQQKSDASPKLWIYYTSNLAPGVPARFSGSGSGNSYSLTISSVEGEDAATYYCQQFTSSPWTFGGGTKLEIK | 26.6
